- METHOD_NOTES: Retention in body organs with time (gas chromatography)
- Assay type: in vivo, rats
- EXPERIMENTAL_SETUP: rat, 0.32 mL/100 g; 7 Days (Av. of 2); kidney; 0.32 ml. fluorocarbon per 100 gm body weight; read-out: Residual fluorocarbon concentration, kidney
MEASURED_PROPERTY: concentration at 168 h

Exercise: Give its concentration at 168 h value. Item: FC1(F)N2C(F)(F)C(F)(F)C(F)(F)C2(F)C(F)(F)C(F)(F)C(F)(F)C1(F)F (stereo not shown)
Key: 100000 ng/g

====

- METHOD_NOTES: Retention in body organs with time (gas chromatography)
- Assay type: in vivo, rats
- EXPERIMENTAL_SETUP: rat, 0.32 mL/100 g; 5 Days; liver; 0.32 ml. fluorocarbon per 100 gm body weight; read-out: Residual fluorocarbon concentration, liver
MEASURED_PROPERTY: concentration at 120 h (ng/g)
Give the number; ng/g is assumed, so skip it.

Exercise: Item FC1(F)N2C(F)(F)C(F)(F)C(F)(F)C2(F)C(F)(F)C(F)(F)C(F)(F)C1(F)F (stereo not shown) has what recorded concentration at 120 h?
Key: 1.18e+07

====

- METHOD_NOTES: Retention in body organs with time (gas chromatography)
- Assay type: in vivo, rats
- EXPERIMENTAL_SETUP: rat, 0.32 mL/100 g; 21 Days; liver; 0.32 ml. fluorocarbon per 100 gm body weight; read-out: Residual fluorocarbon concentration, liver
MEASURED_PROPERTY: concentration at 504 h (ng/g)
Field: numeric (ng/g). Do not append units.

Exercise: Need concentration at 504 h, item FC1(F)N2C(F)(F)C(F)(F)C(F)(F)C2(F)C(F)(F)C(F)(F)C(F)(F)C1(F)F (stereo not shown)
Key: 40000

====

- METHOD_NOTES: Retention in body organs with time (gas chromatography)
- Format: in vivo, rats
- EXPERIMENTAL_SETUP: rat, 0.32 mL/100 g; 7 Days (Av. of 2); heart; 0.32 ml. fluorocarbon per 100 gm body weight; read-out: Residual fluorocarbon concentration, heart
MEASURED_PROPERTY: concentration at 168 h (ng/g)
Please respond with the number in ng/g and leave the unit unwritten.

Exercise: Entry FC1(F)N2C(F)(F)C(F)(F)C(F)(F)C2(F)C(F)(F)C(F)(F)C(F)(F)C1(F)F (stereo not shown) has what concentration at 168 h?
Key: 450000

====

- METHOD_NOTES: Retention in body organs with time (gas chromatography)
- Format: in vivo, rats
- EXPERIMENTAL_SETUP: rat, 0.32 mL/100 g; 5 Days; spleen; 0.32 ml. fluorocarbon per 100 gm body weight; read-out: Residual fluorocarbon concentration, spleen
MEASURED_PROPERTY: concentration at 120 h

Exercise: Field request: concentration at 120 h | item: FC1(F)N2C(F)(F)C(F)(F)C(F)(F)C2(F)C(F)(F)C(F)(F)C(F)(F)C1(F)F (stereo not shown)
Key: 4.35e+07 ng/g

====

- METHOD_NOTES: Retention in body organs with time (gas chromatography)
- Assay type: in vivo, rats
- EXPERIMENTAL_SETUP: rat, 0.32 mL/100 g; 5 Days; heart; 0.32 ml. fluorocarbon per 100 gm body weight; read-out: Residual fluorocarbon concentration, heart
MEASURED_PROPERTY: concentration at 120 h
Give me the value, and tack the unit on after it.

Exercise: Reported concentration at 120 h, compound FC1(F)N2C(F)(F)C(F)(F)C(F)(F)C2(F)C(F)(F)C(F)(F)C(F)(F)C1(F)F (stereo not shown) : ____
Key: 130000 ng/g
